Provenance of the data: the OPERA property sets (Mansouri et al. 2018)

observedProperty: log10 Koc (L/kg)

See these solved cases before continuing.
> print(dat)
                                   molecule  result
1                  CNC(=O)Nc1ccc(Cl)c(Cl)c1    2.46
2  COC(=O)c1cc(Oc2ccc(Cl)cc2Cl)ccc1[N+](=O)[O-]       4
3                     Oc1cc(Cl)c(Cl)c(Cl)c1    3.56

Prompt line: Quick one: log10 Koc (L/kg) for CCOC(=O)c1ccccc1C(=O)OCC ?
Response line: 1.84

Prompt line: Input CNC(=O)/C=C(\C)OP(=O)(OC)OC
Response line: 0

Prompt line: Query COc1ccc(NC(C)=O)cc1 next
Response line: 1.4

Prompt line: Repeat with CCCC(=NOCC)C1=C(O)CC(CC(C)SCC)CC1=O (configuration not stated)
Response line: 2
